The measurements presented in this section are drawn from patent US8410097B2.

- systemTested: CB1 cannabinoid receptor (Rattus norvegicus, UniProt P20272)
- Construct: membranes were prepared from rat forebrain membranes; from tissue; host or cells: rat forebrain membranes
- Sequence (P20272 whole entry): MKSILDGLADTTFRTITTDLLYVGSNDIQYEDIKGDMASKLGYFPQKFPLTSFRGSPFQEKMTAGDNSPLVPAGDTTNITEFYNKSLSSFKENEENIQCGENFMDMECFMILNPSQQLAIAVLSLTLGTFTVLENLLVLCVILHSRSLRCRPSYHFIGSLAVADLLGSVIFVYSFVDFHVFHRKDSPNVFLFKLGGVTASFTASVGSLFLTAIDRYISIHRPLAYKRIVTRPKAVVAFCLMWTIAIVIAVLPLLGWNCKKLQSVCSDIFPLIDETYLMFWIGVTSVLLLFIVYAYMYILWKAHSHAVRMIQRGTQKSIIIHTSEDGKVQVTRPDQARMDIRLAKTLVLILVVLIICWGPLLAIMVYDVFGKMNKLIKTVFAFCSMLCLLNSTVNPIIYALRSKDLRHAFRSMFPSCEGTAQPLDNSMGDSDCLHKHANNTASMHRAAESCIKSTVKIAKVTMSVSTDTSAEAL
- protocolDetails: biochemical
- Format: binding
- measurementConditions: Receptor Affinities Ki (nM) CB1, Table 10; rat forebrain membranes
Known Ki of a selection of molecules
propertyLabel: Ki (nM)

                          compoundstructure  propertylabel  valuemeasured
0  Cc1c(C(=O)NN2CCCCC2)nn(-c2ccc(Cl)cc2Cl)c1-c1ccc(C#CCCCCN)cc1             Ki             87
1  Cc1c(C(=O)NN2CCCCC2)nn(-c2ccc(Cl)cc2Cl)c1-c1ccc(C#CCCN)cc1             Ki             20
2  Cc1c(C(=O)NN2CCCCC2)nn(-c2ccc(Cl)cc2Cl)c1-c1ccc(C#CCN)cc1.Cl             Ki             30
3  Cc1c(C(=O)NN2CCCCC2)nn(-c2ccc(Cl)cc2Cl)c1-c1ccc(C#CCCCN)cc1             Ki             46
4  Cc1c(C(=O)NN2CCCCC2)nn(-c2ccc(Cl)cc2Cl)c1-c1ccc(C#CC(C)(C)C)cc1             Ki             25
5  Cc1c(C(=O)NN2CCCCC2)nn(-c2ccc(Cl)cc2Cl)c1-c1ccc(C#CCN)cc1             Ki             21
6  Cc1c(C(=O)NN2CCCCC2)nn(-c2ccc(Cl)cc2Cl)c1-c1ccc(C#CCNC(=O)OC(C)(C)C)cc1             Ki             68
